- System: gene editing with Cas9
- ASSAY_NAME: Screen of 322 new SSAP proteins, gene editing activity with Cas9 (Table 5)
- Format: cell-based
- COND: normalized
Listed here are molecules together with their documented Cas9 with SSAP activity (normalized).
OBSERVED_PROPERTY: Cas9 with SSAP activity (normalized)

molecule="SSAP_251: SEQ ID NO: 420; Hathewaya proteolytica (protein, listed as Hathewaya proteolytica) ADSKKELILKESYSVLDRLIETKISAMPKDFNRTRFLQNCMTVLQDTKDIEKCQPISVARTLLKGAFLGLDFFQKECYAIPYGGTLQFQTDYKGETKMAKKYSIRPIKDIYAKVVREDDLFEEEIKEGQQFVNFKPIPFSDKPIIGAFAVVLYQDGGMEYETMSKTQIEGIRDNFSKMKNGLMWTKTPEEAYKKTVLRRLTKKIEKDFDTIEQAKTYEETSDSEFKKEEKCNEKSVFDVEYSEVESEELEQQTMLENSPFGGEQ" observed_property="Cas9 with SSAP activity (normalized)" assay_value=−1.345
molecule="SSAP_7: SEQ ID NO: 176 (protein) STNDELKNKLANKQNGGQVASAQSLGLKGLLEAPTMRKKFESVLDKKAPQFLTSLLNLYNGDDYLQKTDPMTVVTSAMVAATLDLPIDKNLGYAWIVPYKGRAQFQLGYKGYIQLALRTGQYKSINVIEVRDGELLKWNRLTEEIELDLDNNTSEKVIGYCGYFQLINGFEKTVYWTRKEIEAHKKKFSKSDFGWKKDYDAMAKKTVLRNMLSKWGILSIDMQTAVTEDEAEPRERKDVTEDESIPDIIDAPITPSDTLEAGSEVQGSMI" observed_property="Cas9 with SSAP activity (normalized)" assay_value=−1.701
